- system.name: Protein deacetylase HDAC6 (Homo sapiens, UniProt Q9UBN7)
- Sequence (Q9UBN7 whole entry, the tested form may be a part): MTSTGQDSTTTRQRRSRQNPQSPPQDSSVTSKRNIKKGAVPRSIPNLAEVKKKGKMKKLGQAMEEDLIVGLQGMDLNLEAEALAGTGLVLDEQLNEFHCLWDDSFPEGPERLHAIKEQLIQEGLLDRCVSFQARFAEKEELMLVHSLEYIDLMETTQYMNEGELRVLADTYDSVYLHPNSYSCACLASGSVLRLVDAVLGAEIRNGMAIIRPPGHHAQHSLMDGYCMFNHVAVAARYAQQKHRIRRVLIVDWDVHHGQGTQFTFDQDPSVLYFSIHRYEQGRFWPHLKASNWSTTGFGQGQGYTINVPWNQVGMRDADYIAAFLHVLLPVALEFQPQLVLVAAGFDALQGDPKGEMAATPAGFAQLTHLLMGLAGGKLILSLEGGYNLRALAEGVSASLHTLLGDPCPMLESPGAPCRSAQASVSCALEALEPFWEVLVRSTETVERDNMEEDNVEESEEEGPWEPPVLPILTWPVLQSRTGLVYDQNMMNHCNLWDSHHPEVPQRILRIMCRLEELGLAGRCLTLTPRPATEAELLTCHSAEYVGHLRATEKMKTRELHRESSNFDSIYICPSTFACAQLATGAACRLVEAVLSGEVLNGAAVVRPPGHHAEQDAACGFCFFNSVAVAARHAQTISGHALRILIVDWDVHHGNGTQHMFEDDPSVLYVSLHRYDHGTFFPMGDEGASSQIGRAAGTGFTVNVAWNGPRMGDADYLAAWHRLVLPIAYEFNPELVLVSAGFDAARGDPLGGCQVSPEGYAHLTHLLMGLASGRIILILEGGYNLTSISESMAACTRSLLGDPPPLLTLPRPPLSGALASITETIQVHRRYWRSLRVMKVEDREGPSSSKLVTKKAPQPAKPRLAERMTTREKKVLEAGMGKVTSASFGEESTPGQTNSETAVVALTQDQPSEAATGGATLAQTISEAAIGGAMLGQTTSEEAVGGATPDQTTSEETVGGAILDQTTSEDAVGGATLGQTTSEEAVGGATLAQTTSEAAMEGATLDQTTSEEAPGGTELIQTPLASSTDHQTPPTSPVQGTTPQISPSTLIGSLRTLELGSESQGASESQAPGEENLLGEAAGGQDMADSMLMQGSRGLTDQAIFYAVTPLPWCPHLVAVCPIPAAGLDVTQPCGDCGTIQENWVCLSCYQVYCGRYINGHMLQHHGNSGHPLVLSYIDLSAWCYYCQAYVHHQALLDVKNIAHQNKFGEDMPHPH
- procedure.text: Inhibition of purified recombinant human HDAC6 assessed as inhibition constant using residues 379-382 (RHKK(Ac)AMC) fluorogenic substrate p53 fluorogenic peptide as substrate measured after 90 mins by fluorescence assay
recorded.metric: pKi
Entry type: numeric. Quantity: pKi, the -log10 of concentration in molar units.

// known answers, use as guide
{"molecule": "CN1C(=O)N2Cc3c(c4cc(OCCN5CCOCC5)ccc4n3Cc3ccc(C(=O)NO)cc3)C(c3ccco3)(C2)C1=O (racemic)", "pKi": 9.36}
{"molecule": "CN1C(=O)N2Cc3c(c4cc(O)ccc4n3Cc3ccc(C(=O)NO)cc3)C(c3cccs3)(C2)C1=O (racemic)", "pKi": 9.51}

Pending molecule:
Dear colleague, please send me the reported pKi for CN1C(=O)N2Cc3c(c4cc(OCCN5CCOCC5)ccc4n3Cc3ccc(C(=O)NO)cc3)C(C3CCCCC3)(C2)C1=O (racemic) when you can.
8.90

---

- procedure.text: in vitro
- measurement.conditions: human, plasma diluted in PBS (1:2 v/v)
- Description: Stability in human plasma in PBS (1:2 v/v) assessed as intact compound at 37 degC measured after 72 hrs
recorded.metric: remaining at 72 h (%)
Form entry: value (%) — number only.

Dear colleague, please send me the reported remaining at 72 h for `CN1C(=O)N2Cc3c(c4cc(OCCN5CCOCC5)ccc4n3Cc3ccc(C(=O)O)cc3)[C@](C)(C2)C1=O` when you can.
56.3

---

- system.name: Polyamine deacetylase HDAC10 (Homo sapiens)
- Sequence (Q969S8 whole entry): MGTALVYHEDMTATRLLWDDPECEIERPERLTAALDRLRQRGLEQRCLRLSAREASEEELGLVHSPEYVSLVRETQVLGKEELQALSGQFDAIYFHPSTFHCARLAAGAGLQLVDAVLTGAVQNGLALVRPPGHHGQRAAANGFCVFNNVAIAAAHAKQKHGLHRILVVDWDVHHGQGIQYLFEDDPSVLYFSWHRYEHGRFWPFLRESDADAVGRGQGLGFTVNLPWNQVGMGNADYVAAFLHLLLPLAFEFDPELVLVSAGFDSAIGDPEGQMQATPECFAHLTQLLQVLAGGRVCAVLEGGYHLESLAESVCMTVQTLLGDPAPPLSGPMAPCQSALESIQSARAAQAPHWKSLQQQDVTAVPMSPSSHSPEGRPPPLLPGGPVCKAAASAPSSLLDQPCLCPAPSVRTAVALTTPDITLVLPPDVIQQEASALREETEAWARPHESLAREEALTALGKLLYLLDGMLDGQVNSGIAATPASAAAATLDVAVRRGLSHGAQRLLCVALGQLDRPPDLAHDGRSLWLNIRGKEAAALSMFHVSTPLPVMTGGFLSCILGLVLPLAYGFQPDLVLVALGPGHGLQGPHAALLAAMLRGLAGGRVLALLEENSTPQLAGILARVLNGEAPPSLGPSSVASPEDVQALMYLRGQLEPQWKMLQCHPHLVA
- procedure.text: Inhibition of purified recombinant human HDAC10 assessed as inhibition constant using residues 379-382 (RHKK(Ac)AMC) fluorogenic substrate p53 fluorogenic peptide as substrate measured after 90 mins by fluorescence assay
recorded.metric: Ki (nM)
Form entry: value (nM) — number only.

Dear colleague, please send me the reported Ki for Cn1cc(CNCC2CCN(c3ncc(C(=O)NO)cn3)CC2)c2ccccc21 [QUISINOSTAT] when you can.
1.49

---

- System: MV4-11
- procedure.text: Antiproliferative activity against human MV4-11 cells assessed as cell viability by measuring amount of ATP after 72 hrs incubation by CellTiteer-Glo Cell viability assay
- measurement.conditions: MV4-11, 72 h
recorded.metric: pEC50
Entry type: numeric. Quantity: pEC50, the -log10 of concentration in molar units.

Send back MV4-11 pEC50 of `O=C(CCCCCCNC(=O)c1cnc(N(c2ccccc2)c2ccccc2)nc1)NO` only.
6.15

Send back MV4-11 pEC50 of `CC(/C=C/C(=O)NO)=C\[C@@H](C)C(=O)c1ccc(N(C)C)cc1` only.
4.82
